tested on: DIV30; assay: qHTS profiling for inhibitors of Plasmodium falciparum proliferation (AID 504749); also: nearly all actives have a fitted effect of over 60% in size; conditions: P. falciparum in erythrocytes, SYBR Green DNA, 72 h; series mostly up to 28.7 µM
Records with an inconclusive call do not appear. The source made the active and inactive calls. Calls follow the shape of the dose curve; as a rule, active = well fitted inhibition curve with a large enough effect; inconclusive = small, poorly fitted or top-dose-only effect; inactive = flat fitted curve, though single readings scatter.
Just give me one of these, please: 1 (yes) (active), 0 (no) (inactive)

Below are worked cases with known answers.
Per the records of this test, what outcome belongs to CC(=O)c1ccc2c(c1)N(CCCN(C)C)c1ccccc1S2 ?
0 (no)

Note, next up: O=c1cc[nH]c(=O)[nH]1
0 (no)

Cool, now CCCCN(CCCC)CC(O)c1cc(Cl)cc2c1-c1ccc(Cl)cc1/C2=C/c1ccc(Cl)cc1 (configuration not stated)
1 (yes)

Query Nc1ncnc2c1ncn2[C@@H]1O[C@H](CO)[C@@H](O)[C@H]1O next
0 (no)

***
# outcome recorded in this test, key = CC(CN1c2ccccc2Sc2ccccc21)N(C)C (configuration not stated)
0 (no)

Also CCCCCCCCCCCCCCCCCCOCC(O)CO (configuration not stated) ?
0 (no)

Follow-up entry: Cc1cc(N)c2ccccc2[n+]1CCCCCCCCCC[n+]1c(C)cc(N)c2ccccc21
1 (yes)

Input CCCCN(CCCC)CCCOC(=O)c1ccc(N)cc1
0 (no)

Further, for COc1cc(C(=O)N2CCOCC2)cc(OC)c1OC ?
0 (no)

Continue with C[C@@H]1CN(c2c(F)c(F)c3c(=O)c(C(=O)O)cn(C4CC4)c3c2F)C[C@H](C)N1
0 (no)

* * *

experiment: Drug repurposing screens with cells derived from glioblastoma tumor samples (AID 1345199); details: GBM patient neurospheres viability, ATP luminescence, 48 h; at 46 µM (top of the series); tumour line A; also: nearly all actives have a fitted effect of over 40% in size; as to activity, negative = cell killing: % is scaled to controls: 0 for no effect and ±100 for the full control effect
Results filed as inconclusive are left out.
ENDPOINT NAME: activity, negative = cell killing (%)
Your answer is read as %, so omit the unit and give the number.

# count of solved cases: 6
GET /values?readout=activity, negative = cell killing&item= O=C(O)Cc1sc(-c2ccccc2)nc1-c1ccc(Cl)cc1
-38.9

Follow-up entry: C=Cc1c(C)c2cc3[nH]c(cc4nc(cc5nc(cc1[nH]2)C(C)=C5CCC(=O)O)C(CCC(=O)O)=C4C)c(C)c3C=C
-14

Queued: O=C(O)c1ccccn1
-22.3

Check O=C1O[C@H]([C@@H](O)CO)C(O)=C1O too.
-0.597

Please answer likewise for CCCCCCCCCCCCCCCC(=O)NCCO
-19.5

Field entry: Nc1ccc(S(=O)(=O)Nc2nccs2)cc1
-21.1

Continuing:
Query (compound): NC(CSCC(=O)O)C(=O)O (stereo not drawn) ; field requested: activity, negative = cell killing
-25.4

Try this compound next: CC1(C)S[C@@H]2[C@H](NC(=O)Cc3ccccc3)C(=O)N2[C@H]1C(=O)O (tested in a mixture with another compound)
-22.7

What about OCC(CO)N[C@H]1C[C@](O)(CO)[C@@H](O)[C@H](O)[C@H]1O ?
-13.3

Thanks! And N[C@@H](CSCCCO)C(=O)O ?
-27

And the next one, O=C(O)CC(O)C(=O)O (stereo not drawn) ?
-24.7

Also need COc1ccccc1O , thanks.
-31.4

Same read-out for NC(=O)c1ncn([C@@H]2O[C@H](CO)[C@@H](O)[C@H]2O)n1 ?
-27.6

* * *

test system: PC15; assay: qHTS profiling for inhibitors of Plasmodium falciparum proliferation (AID 504749); also: nearly all actives have a fitted effect of over 60% in size; conditions: P. falciparum in erythrocytes, SYBR Green DNA, 72 h; series mostly up to 28.7 µM
Results filed as inconclusive are left out. The source made the active and inactive calls. The call rests on the fitted dose curve; in most records, active means well fitted inhibition curve with a large enough effect; inconclusive means small, poorly fitted or top-dose-only effect; inactive means flat fitted curve, though single readings scatter.
Answer with one of the outcomes given here: T for active, F for inactive

What classification did CCCCCCCCCCCCCCCC(=O)NCCO end up with in this test?
F

Next record, please: COc1cc2[nH]c(=O)[nH]c(=O)c2cc1OC
F

Same question, CC1=C(/C=C/C(C)=C/C=C/C(C)=C/C(=O)O)C(C)(C)CCC1 this time
F

Lookup Cc1cc(CC(=O)O)n(C)c1C(=O)c1ccc(Cl)cc1
F

Cool, now O=c1cc(CO)occ1O
F

Please find the next molecule below.
Recorded test call requested for CC1(C)OC(=O)NC1=O
F

* * *

test system: DIV17; assay: qHTS profiling for inhibitors of Plasmodium falciparum proliferation (AID 504749); also: nearly all actives have a fitted effect of over 60% in size; conditions: P. falciparum in erythrocytes, SYBR Green DNA, 72 h; series mostly up to 28.7 µM
Records with an inconclusive call do not appear. The source made the active and inactive calls. The call rests on the fitted dose curve; in most records, active means well fitted inhibition curve with a large enough effect; inconclusive means small, poorly fitted or top-dose-only effect; inactive means flat fitted curve, though single readings scatter.
Give your call using only these classes: active, inactive

For O=C(O)COc1nn(Cc2ccccc2)c2ccccc12 , what call appears in the results of this test?
inactive

More entries:
What classification did COc1ccc(Cl)cc1C(=O)NCCc1ccc(S(=O)(=O)NC(=O)NC2CCCCC2)cc1 end up with in this test?
inactive

Continue with Nc1ncnc2c1ncn2[C@@H]1O[C@H](CO)[C@@H](O)[C@H]1O
inactive

* * *

assay: qHTS for differential inhibitors of proliferation of Plasmodium falciparum line 3D7 (AID 1876); settings: P. falciparum 3D7 proliferation inhibition; series mostly up to 28.7 µM
Inconclusive results are not listed. The source made the active and inactive calls. The call rests on the fitted dose curve; in most records, active means well fitted curve in the direction sought with a large enough effect; inconclusive means small, poorly fitted or top-dose-only effect, or another doubt; inactive means no such curve, though single readings can be large or run the other way.
Answer with one of the outcomes T = active, F = inactive

For CCN(CC)CCNC(=O)c1cc(Cl)c(N)cc1OC , which call appears in the assay record?
F

Again, but for CCN(CC)CCCC(C)Nc1c2ccc(Cl)cc2nc2ccc(OC)cc12 (stereo not given)
T

Could you do the same for CN1CCN(C2Cc3ccccc3Sc3ccc(Cl)cc32)CC1 (stereo not given) , please?
T

Others:
Would you mind telling me which call this test gave CC1=C(/C=C/C(C)=C/C=C/C(C)=C/C(=O)O)C(C)(C)CCC1 ?
F

Can you check C[C@](N)(Cc1ccc(O)cc1)C(=O)O next?
F

* * *

tested on: W2; assay: qHTS profiling for inhibitors of Plasmodium falciparum proliferation (AID 504749); also: nearly all actives have a fitted effect of over 60% in size; conditions: P. falciparum in erythrocytes, SYBR Green DNA, 72 h; series mostly up to 28.7 µM
Inconclusive results are not listed. Calls of active or inactive are those of the source. Calls come from the whole dose curve; as a rule, active = well fitted inhibition curve with a large enough effect; inconclusive = small, poorly fitted or top-dose-only effect; inactive = flat fitted curve, though single readings scatter.
Please state which outcome applies, choosing from active, inactive

Reference set (2 entries):
Check the results log: what was the call for O=C(O)CN1C(=O)c2cccc3cccc(c23)C1=O ?
inactive

Cool, now CCOC(CN1CCN(CC(C)C(=O)c2ccccc2)CC1)c1ccccc1 (centres undefined)
active

In the following, a different compound is considered.
Could you please tell me the result logged for COC(=O)C1=C(C)NC(C)=C(C(=O)OC)C1c1ccccc1[N+](=O)[O-] in this assay?
inactive

* * *

assay: Primary fluorescence-based thiol-reactive (MSTI) qHTS assay for identification of artifact compounds. (AID 1845221); conditions: MSTI thiol-reactivity probe, 1 h; series mostly up to 53.8 µM; also: nearly all actives have a fitted effect of over 65% in size
Records with an inconclusive call do not appear. Activity calls are given as the source filed them. Calls come from the whole dose curve; as a rule, active = well fitted inhibition curve with a large enough effect; inconclusive = small, poorly fitted or top-dose-only effect; inactive = no such curve, though single readings can be large or run the other way.
The categories you may choose from are 1.0 = active, 0.0 = inactive

Previously resolved entries follow.
Which outcome did this test record for the compound COc1ccc(Cl)cc1C(=O)NCCc1ccc(S(=O)(=O)NC(=O)NC2CCCCC2)cc1 ?
0.0

Next: CN1CCOC(c2ccccc2)c2ccccc2C1 (stereo not drawn)
0.0

Record: Cc1cc(N)c2ccccc2[n+]1CCCCCCCCCC[n+]1c(C)cc(N)c2ccccc21
0.0

Next: CCOc1ccc2ccccc2c1C(=O)N[C@@H]1C(=O)N2[C@@H]1SC(C)(C)[C@@H]2C(=O)O
0.0

Similarly, CC(=O)NC(Cc1ccccc1)C(=O)O (stereo not drawn) ?
1.0

---
Per the records of this test, what outcome belongs to O=C1Nc2ccc(Cl)cc2[C@@](C#CC2CC2)(C(F)(F)F)O1 ?
0.0

Note, next up: CCN(CC)CCCC(C)Nc1c2ccc(Cl)cc2nc2ccc(OC)cc12 (stereo not drawn)
0.0

Check CC/C=C(\C(=O)N[C@@H]1C(=O)N2C(C(=O)OCOC(=O)C(C)(C)C)=C(COC(N)=O)CS[C@H]12)c1csc(N)n1 too.
0.0

* * *

test system: astro; experiment: Drug repurposing screens with cells derived from glioblastoma tumor samples (AID 1345199); details: viability, ATP luminescence, 48 h; series mostly up to 45.9 µM; also: nearly all actives have a fitted effect of over 40% in size
Results filed as inconclusive are left out. The source made the active and inactive calls. Calls follow the shape of the dose curve; as a rule, active = well fitted inhibition curve with a large enough effect; inconclusive = small, poorly fitted or top-dose-only effect; inactive = flat fitted curve, though single readings scatter.
Thanks in advance; please answer with one of these: 1.0 for active, 0.0 for inactive

Solved cases below.
// param item: CN(C)CCN(Cc1ccccc1)c1ccccn1 ; yields the recorded call
0.0

# repeat for C[C@](N)(Cc1ccc(O)cc1)C(=O)O
0.0

Queued: O=C(O)c1ccccc1O
0.0

Proceed to CCCCN1CCCC[C@H]1C(=O)Nc1c(C)cccc1C
0.0

Do the same for CC12CCC(CC1)C(C)(C)O2 please
0.0

Others:
How was CC[C@@]1(c2ccccc2)NC(=O)N(C)C1=O classified in this test?
0.0

Field entry: Cc1c(O)cccc1C(=O)N[C@@H](CSc1ccccc1)[C@H](O)CN1C[C@H]2CCCC[C@H]2C[C@H]1C(=O)NC(C)(C)C
1.0
